biological target: Neuromedin-K receptor (Homo sapiens, UniProt P29371); experiment: Binding affinity to wild type human NK3 receptor
measurement-kind: Ki (nM)

{"structure-smiles-string": "Cc1cc(F)ccc1-c1cc(N2CC[C@H](O)[C@H]2CO)ncc1N(C)C(=O)C(C)(C)c1cc(C(F)(F)F)cc(C(F)(F)F)c1", "test-system": "Neuromedin-K receptor (Homo sapiens, UniProt P29371)", "numeric-readout": 2.9}

###

Target: UniProtKB P29371
Sequence (P29371 whole entry): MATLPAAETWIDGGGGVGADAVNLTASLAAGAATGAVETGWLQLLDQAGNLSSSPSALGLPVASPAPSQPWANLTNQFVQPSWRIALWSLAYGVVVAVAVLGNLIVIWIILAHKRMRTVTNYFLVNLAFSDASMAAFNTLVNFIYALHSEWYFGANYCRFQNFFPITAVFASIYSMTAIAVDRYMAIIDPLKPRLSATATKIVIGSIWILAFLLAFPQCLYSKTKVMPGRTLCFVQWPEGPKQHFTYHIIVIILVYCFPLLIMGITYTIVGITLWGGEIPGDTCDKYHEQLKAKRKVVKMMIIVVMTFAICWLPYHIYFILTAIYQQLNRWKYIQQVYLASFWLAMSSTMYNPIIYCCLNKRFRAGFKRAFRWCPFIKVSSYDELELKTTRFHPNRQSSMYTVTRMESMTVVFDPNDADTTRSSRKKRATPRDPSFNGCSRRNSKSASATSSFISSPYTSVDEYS
Experiment: Competitive inhibition at wild type human NK3 expressed in HEK293 cells assessed as decrease in [MePhe7]NKB-induced [3H]IP accumulation after 20 mins
Assay type: cell-based
Conditions: read-out: pA2 (converted)

{"structure-smiles-string": "Cc1cc(F)ccc1-c1cc(N2CCN(S(C)(=O)=O)[C@@H](C)C2)ncc1N(C)C(=O)C(C)(C)c1cc(C(F)(F)F)cc(C(F)(F)F)c1", "unit-symbol": "nM", "Kb": 16.2}
{"structure-smiles-string": "Cc1cc(F)ccc1-c1cc(N2CC[C@H](O)C2)ncc1N(C)C(=O)C(C)(C)c1cc(C(F)(F)F)cc(C(F)(F)F)c1", "unit-symbol": "nM", "Kb": 120}
{"structure-smiles-string": "Cc1cc(F)ccc1-c1cc(N2CCN(S(C)(=O)=O)CC2)ncc1N(C)C(=O)C(C)(C)c1cc(C(F)(F)F)cc(C(F)(F)F)c1", "unit-symbol": "nM", "Kb": 123}
{"structure-smiles-string": "Cc1cc(F)ccc1-c1cc(N2CCC3(CC2)OCCS3(=O)=O)ncc1N(C)C(=O)C(C)(C)c1cc(C(F)(F)F)cc(C(F)(F)F)c1", "unit-symbol": "nM", "Kb": 97.7}
